Entries and their switch fluorescence ratio
Test system: ATP;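 note: ATP exposure 15 min at 22 °C before imaging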
Experiment description: switch fluorescence ratio, 500 uM ATP over buffer (Cy3 cluster intensity, sum of 5 cycles each) (fold (ratio)); higher = stronger signal-on switching upon ATP binding; sequences stand for … in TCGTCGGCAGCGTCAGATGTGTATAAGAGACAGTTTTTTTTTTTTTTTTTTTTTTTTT…TC
Condition set: aptamer strand: ATP DNA aptamer (quencher-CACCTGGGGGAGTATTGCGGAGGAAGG + anchor), 100 nM annealed; ATP concentration: 500 uM
Give the value as a plain number.

Record excerpt, results attached:
{"columns": ["Residue sequence", "Test target", "switch fluorescence ratio"],
 "data": [
  ["GACACATCAA", "ATP", 1.05],
  ["AGTGCAGGTG", "ATP", 2.44]
]}

Proceed to the following item.
Bench note: what switch fluorescence ratio did TTAGAGAACC show?
1.01
